Molecular target: pooled human IgG (human); further: test concentration or dose not given here
Experiment: cell-based or functional assay
MEASURED ATTRIBUTE: Enzyme Activity Endpoint Assay (purified): Fc (ng/µL)
Write the value in ng/µL as a bare number.

Input: Data request, read-out Enzyme Activity Endpoint Assay (purified): Fc, for PRT-220 (enzyme) MEVVEVWPYGQNPNGKTEILSQTEDSESLQRLRDIEDFQAEKKKQGVVYTKWLDGVNVDDHEFRKITDGNTEYYATPLLNGRGYYDINKDFNRDSDKCAAAVAANMFHYWLDRNRDNVDRFLRQNPDKHGIIELPDGQLKLSDFLNTYESDHDYRDKSKLFDFISNNFNGPVWTNKLLDNYINGYGYNYKYGRTIEDPTKNTSKINFFKEVFNGKLLTDNHSIRNKNEFSSKLSEALYTGKAIGLSYGPAGLRHSLGHIISVWGADLDEDGNVVAIYVTDSDDKKLTIGDERVGLKRYKVSYDDEGRARLTAYEETDNTGGEIRGLWTLDTGKQYWADYFDKTEQTGTDQAEQLEHHHHHH
Output: 61
